# System: SNB-19 CNS
# measurement-description: NCI-60 one-dose screen, 48 h (100 = growth as untreated, 0 = no growth, -100 = all killed)
# measurement-setup: 10 µM unless noted
# Protocol: Growth inhibition of the SNB-19 human tumor cell line is measured as a screen for anti-cancer activity. Cells are grown in 96 well plates and exposed to the test compound for 48 hours. Compounds are tested at a single concentration, which is 10^-5 M for most compounds. The reported endpoint is percent growth (GI% or GIPRCNT), where numbers from 0 - 100% represent growth inhibition, and numbers from -100% - 0 represent cell death. For example, a value of 40 represents 60% growth inhibition. […]
This is part of a sample that, as a whole, favours compounds with a hit. Of some 83,000 tested, about 20% had one in any assay.
In this section we review reported growth values for a set of compounds.
The reply should be a number in %, with the unit left off.

Some solved entries appear below for comparison.
| compound | display-unit | value-measured |
| --- | --- | --- |
| COc1cccc2c1C(=O)c1c(O)c3c(c(O)c1C2=O)C[C@@](O)(C(=O)CO)C[C@@H]3OC1CC(OC(C)=O)C(OC(C)=O)C(C)O1 (stereo partly drawn) | % | -8.8 |
| Cc1ccc2cccc(OC(=O)Nc3cccc(C(F)(F)F)c3)c2n1 | % | 72.1 |

Please fill in: growth reported for CCOc1ccc(C(C[N+](=O)[O-])Sc2ccccc2N)cc1 (stereo not drawn) = 46.2
